Data provenance: patent US6706664B1

tested on: corn; experiment: Foliar spread test for upland field; format: in vivo; design: key: 0: normal development; 1: Less damaged; 2: Slightly damaged; 3: Moderately damaged; 4: Severely damaged; 5: All killed; details: foliar spray 500 ppm, 3 weeks, rank vs non-treated
Property measured: Effects Corn
I only need the number, thanks.

CCC(Oc1ccc(F)c(C(F)(F)F)c1)c1nc2cc(I)ccc2o1 (stereo not drawn) : 2
CCC(Oc1cccc(C(F)(F)F)c1)c1nc2cc(Br)ccc2o1 (stereo not drawn) : 3
CCC(Oc1ccc(F)c(C(F)(F)F)c1)c1nc2cc(F)c(Cl)cc2o1 (stereo not drawn) : 2
CCC(Oc1cccc(C(F)(F)F)c1)c1nc2cc(C#N)ccc2o1 (stereo not drawn) : 2
CCC(Oc1cccc(C(F)(F)F)c1)c1nc2cc(C#N)c(C#N)cc2o1 (stereo not drawn) : 1

Given the compound CCC(Oc1ccc(F)c(C(F)(F)F)c1)c1nc2cc(F)ccc2o1 (stereo not drawn) , what is its reported Effects Corn?
2

Given the compound CCC(Oc1ccc(F)c(C(F)(F)F)c1)c1nc2cc([N+](=O)[O-])ccc2o1 (stereo not drawn) , what is its reported Effects Corn?
2

Given the compound CCCC(Oc1ccc(F)c(C(F)(F)F)c1)c1nc2cc(C(F)(F)F)ccc2o1 (stereo not drawn) , what is its reported Effects Corn?
2

Given the compound CCC(Oc1cccc(C(F)(F)F)c1)c1nc2cc(S(C)(=O)=O)c(C)cc2o1 (stereo not drawn) , what is its reported Effects Corn?
1

====

Recorded Effects Barnyardgrass by entry
test system: barnyardgrass; assay: Soil treatment test for upland field; type: in vivo, Echinochloa crusgalli; parameters: key: 0: normal development; 1: Less damaged; 2: Slightly damaged; 3: Moderately damaged; 4: Severely damaged; 5: All killed; settings: 500 g/ha, glass house 25° C., 3 weeks

CCC(Oc1ccc(F)c(C(F)(F)F)c1)c1nc2cc(Cl)ccc2o1 (centres unmarked) : 3
CCC(Oc1cccc(OC(F)(F)F)c1)c1nc2cc(Cl)ccc2o1 (centres unmarked) : 4
CCC(Oc1ccc(F)c(C(F)(F)F)c1)c1nc2cc(F)ccc2o1 (centres unmarked) : 5
CCCC(Oc1cccc(C(F)(F)F)c1)c1nc2cc(C(F)(F)F)ccc2o1 (centres unmarked) : 5

Now for the compound whose Effects Barnyardgrass we want.
Given the compound CCC(Oc1cccc(OC(F)(F)F)c1)c1nc2cc(C#N)ccc2o1 (centres unmarked) , what is its reported Effects Barnyardgrass?
5

====

Recorded Effects Solgum by entry
Tested on: solgum
Test: Soil treatment test for upland field
Type: in vivo
Design: key: 0: normal development; 1: Less damaged; 2: Slightly damaged; 3: Moderately damaged; 4: Severely damaged; 5: All killed
Conditions: 500 g/ha, glass house 25° C., 3 weeks
Experimental: (0: normal development, 1: Less damaged, 2: Slightly damaged, 3: Moderately damaged, 4: Severely damaged, 5: All killed). […] The herbicidal effects were evaluated according to the evaluation method described in the above (1).

Solved entries (count: 5):
CCC(Oc1ccc(F)c(C(F)(F)F)c1)c1nc2cc(Cl)c(C)cc2o1 (centres unmarked) : 3
CCCC(Oc1ccc(F)c(C(F)(F)F)c1)c1nc2cc(Cl)ccc2o1 (centres unmarked) : 2
CCC(Oc1ccc(Cl)c(C(F)(F)F)c1)c1nc2cc(F)ccc2o1 (centres unmarked) : 1
CCCC(Oc1cccc(C(F)(F)F)c1)c1nc2cc(C#N)c(C#N)cc2o1 (centres unmarked) : 1
CC(Oc1ccc(F)c(C(F)(F)F)c1)c1nc2cc(Cl)ccc2o1 (centres unmarked) : 1

Given the molecule CCC(Oc1ccc(F)c(C(F)(F)F)c1)c1nc2cc(Cl)c([N+](=O)[O-])cc2o1 (centres unmarked) , what is its reported Effects Solgum?
1

Given the molecule CCCC(Oc1ccc(F)c(C(F)(F)F)c1)c1nc2cc(C#N)c(Cl)cc2o1 (centres unmarked) , what is its reported Effects Solgum?
0

Given the molecule CCC(Oc1ccc(Cl)c(C#N)c1)c1nc2cc(S(C)(=O)=O)ccc2o1 (centres unmarked) , what is its reported Effects Solgum?
0
